Target: T1, Human hepcidin peptide (hepcidin-25) (human)
T1 construct: Synthetic 25 aa peptide; also called hep-25; Hep-25
T1 peptide: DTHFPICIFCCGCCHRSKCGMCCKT
Assay: titration affinity ELISA, hepcidin 100 ng/well on Nunc Immobilizer Amino plate; antibody 0 ng/ml (blank)
Let's look at some binders and their measured OD 450 nm.
Give a bare numeral; the unit OD450 is implied.

Recorded results for 3 binders are shown here.
BAP070-hum03 (antibody, IgG1, V domains shown, Expressed as soluble IgG1 in CHO cells, tested as supernatant; The entries stop inside FR4) VH: QVQLVQSGAEVKKPGASVKVSCKASGYTFTNYGMNWVRQATGQGLEWMGWINTYTGEPTYADDFKGRFVFSLDTSVSTAYLQICSLKAEDTAVYYCTTYATSWYWGQG VL: AIQLTQSPSSLSASVGDRVTITCRASESVDSYGNSFMHWYQQKPGQAPRLLIYRASNLESGVPSRFSGSGSGTDFTFTISSLQPEDIATYYCQQSNEDLTFG = 0.051
BAP070-hum01 (antibody, IgG1, V domains shown, Expressed as soluble IgG1 in CHO cells, tested as supernatant; The entries stop inside FR4 (...WGQG / ...FG); also called humanized hit 1) VH: QVQLVQSGAEVKKPGASVKVSCKASGYTFTNYGMNWVRQARGQRLEWIGWINTYTGEPTYADDFKGRLTISKDTSKNQVVLTMTNMDPVDTATYYCTTYATSWYWGQG VL: DIQMTQSPSSLSASVGDRVTITCRASESVDSYGNSFMHWYQQKPGQAPRLLIYRASNLESGVPSRFSGSGSGTDFTFTISSLQPEDIATYYCQQSNEDLTFG = 0.05
BAP070-hum02 (antibody, IgG1, V domains shown, Expressed as soluble IgG1 in CHO cells, tested as supernatant; The entries stop inside FR4) VH: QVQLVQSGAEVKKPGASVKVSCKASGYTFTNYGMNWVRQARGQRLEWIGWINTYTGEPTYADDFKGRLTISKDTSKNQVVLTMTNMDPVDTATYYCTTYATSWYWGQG VL: AIQLTQSPSSLSASVGDRVTITCRASESVDSYGNSFMHWYQQKPGKAPKLLIYRASNLESGIPARFSGSGSGTEFTLTISSLQSEDFAVYYCQQSNEDLTFG = 0.048

Now examine the next entry.
Exercise: Requested read-out: OD 450 nm. Entry: BAP070-hum05 (antibody, IgG1, V domains shown, Expressed as soluble IgG1 in CHO cells, tested as supernatant; The entries stop inside FR4) VH: EVQLVQSGAEVKKPGESLRISCKGSGYTFTNYGMNWIRQPPGKGLEWIGWINTYTGEPTYADDFKGRVTISADKSISTAYLQWSSLKASDTAMYYCTTYATSWYWGQG VL: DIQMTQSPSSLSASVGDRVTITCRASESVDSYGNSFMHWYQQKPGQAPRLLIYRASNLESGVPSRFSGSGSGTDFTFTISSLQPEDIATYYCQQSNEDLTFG
Key: 0.037
